Test system: whole rat blood aggregation induced by 5-HT and collagen
Experiment: In vitro whole rat blood aggregation induced by 5-HT and sub-threshold collagen
Type: cell-based
Conditions: 5-HT 30 μM and collagen 0.8 μg/ml, read-out: b (5-HT + collagen) IC50
Procedure: In vitro aggregation assays were performed using freshly drawn whole rat blood with a Multiplate platelet function analyzer (Roche Diagnostic), the five-channel aggregometer based on measurements of electric impedance. Blood was collected from carotid arteries with a hirudin blood tube (Roche Diagnostic). […] The aggregation process was recorded for 6 min. […] The Multiplate software analyzed the area under the curve (AUC) of the clotting process of each measurement and calculated the mean values. […]
pIC50: −log10 of the molar value.
measurement-type: pIC50

compound="O=C1NC2(CCC(c3ccccc3)CC2)C(=O)N1CCCN1CCN(c2ccc(F)cc2)CC1 (stereo not shown)" observed_result=4.04
compound="O=C1NC2(CCC(c3ccccc3)CC2)C(=O)N1CCCN1CCN(c2ccccc2)CC1 (stereo not shown)" observed_result=4.27

[P] O=C1NC2(CCC(c3ccccc3)CC2)C(=O)N1CCCN1CCN(c2ccccc2F)CC1 (stereo not shown)
[Q] O=C(c1ccc(F)cc1)C1CCN(CCn2c(=O)[nH]c3ccccc3c2=O)CC1 [Ketanserin, reference compound]
Req: Quick one: lower pIC50, P or Q ? Give the label under which the chosen entry appears.
Resp: P
(P: 3.86, Q: 5.89)
